From: patent EP3478687B1

- study_target: Recombinant purified human BTK (Homo sapiens)
- Sequence (Q06187 whole entry): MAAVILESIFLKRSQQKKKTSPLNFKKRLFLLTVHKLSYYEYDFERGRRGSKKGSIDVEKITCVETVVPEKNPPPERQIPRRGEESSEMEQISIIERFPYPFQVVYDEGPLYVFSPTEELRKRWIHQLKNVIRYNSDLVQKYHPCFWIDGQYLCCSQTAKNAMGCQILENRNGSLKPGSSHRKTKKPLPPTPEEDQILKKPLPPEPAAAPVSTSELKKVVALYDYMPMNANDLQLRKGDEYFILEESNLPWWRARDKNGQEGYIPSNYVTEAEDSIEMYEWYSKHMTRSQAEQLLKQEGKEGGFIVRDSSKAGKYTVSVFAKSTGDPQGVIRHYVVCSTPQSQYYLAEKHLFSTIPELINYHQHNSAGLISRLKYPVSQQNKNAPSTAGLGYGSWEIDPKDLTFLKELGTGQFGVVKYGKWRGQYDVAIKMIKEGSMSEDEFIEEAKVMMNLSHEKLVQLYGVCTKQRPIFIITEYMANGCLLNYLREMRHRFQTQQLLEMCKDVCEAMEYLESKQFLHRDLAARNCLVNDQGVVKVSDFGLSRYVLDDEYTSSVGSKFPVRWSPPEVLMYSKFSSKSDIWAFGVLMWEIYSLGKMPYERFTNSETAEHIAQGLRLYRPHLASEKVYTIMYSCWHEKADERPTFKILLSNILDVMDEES
- procedure_text: BTK kinase inhibitory activity, ADP-Glo kinase assay (Promega V9071)
- condition_set: ATP 10 uM, 8 ng BTK per reaction, 1 hour 30 °C, chemiluminescence
pIC50: −log10 of the molar value.
assay_metric: pIC50

INSERT INTO assay_data (sample_smiles, study_target, assay_metric, quantitative_readout) VALUES
  ('C=CC(=O)N1CCC[C@@H](Nc2nc(Nc3ccc(-n4nc(C)cc4C)cc3)nc3[nH]nc(Cl)c23)C1', 'Recombinant purified human BTK (Homo sapiens)', 'pIC50', 8.17),
  ('C=CC(=O)N1CCC[C@@H](Nc2nc(Nc3cc(C)ns3)nc3[nH]cc(Cl)c23)C1', 'Recombinant purified human BTK (Homo sapiens)', 'pIC50', 8.96),
  ('C=CC(=O)N1CCC[C@@H](Nc2nc(Nc3cnn(CC)c3)nc3[nH]nc(C)c23)C1', 'Recombinant purified human BTK (Homo sapiens)', 'pIC50', 8.68),
  ('CC(C)/C=C(\C#N)C(=O)N1CCC[C@@H](Oc2nc(Nc3cnn(C4CC4)c3)nc3[nH]nc(Cl)c23)C1', 'Recombinant purified human BTK (Homo sapiens)', 'pIC50', 8.92),
  ('C=CC(=O)N1CCC[C@@H](Nc2nc(Nc3cnn(CCN(CC)CC)c3)nc3[nH]ccc23)C1', 'Recombinant purified human BTK (Homo sapiens)', 'pIC50', 8.06),
  ('C=CC(=O)N1CCC[C@@H](Nc2nc(Nc3cnoc3)nc3[nH]ncc23)C1', 'Recombinant purified human BTK (Homo sapiens)', 'pIC50', 8.85),
  ('C=CC(=O)N1CCC[C@@H](Sc2nc(Nc3cnn(CC)c3)nc3[nH]cc(F)c23)C1', 'Recombinant purified human BTK (Homo sapiens)', 'pIC50', 8.66),
  ('C=CC(=O)N1CCC[C@@H](Nc2nc(Nc3ccc(C(=O)N4CCOCC4)cc3)nc3[nH]ccc23)C1', 'Recombinant purified human BTK (Homo sapiens)', 'pIC50', 7.84);

A: C=CC(=O)N1CC[C@@H](C)[C@@H](Nc2nc(Nc3cnn(C4CC4)c3)nc3[nH]nc(Cl)c23)C1
B: C=CC(=O)N1CCC[C@@H](N(C)c2nc(Nc3cnoc3)nc3[nH]ccc23)C1
Q. Among A and B , whose measured pIC50 is the smaller figure? Selection: enter the item's label.
A. B
(B: 6.84, A: 8.77)

a: CCn1cc(Nc2nc(N[C@H]3CN(C(=O)CCl)CC[C@H]3C)c3c(Cl)n[nH]c3n2)cn1
b: C=CC(=O)N1CCC[C@@H](Nc2nc(Nc3cnn(C4CC4)c3)nc3[nH]nc(Cl)c23)C1
c: CCn1cc(Nc2nc(N[C@H]3CN(C(=O)/C(C#N)=C/C(C)C)CC[C@H]3F)c3c(Cl)n[nH]c3n2)cn1
d: C=CC(=O)N1CCC[C@@H](N(C)c2nc(Nc3cnn(CC)c3)nc3[nH]cc(F)c23)C1
Q. Kindly order the items shown according to pIC50, from the highest value down. List the labels, following the order given in the request.
A. b, a, c, d

====

- study_target: Recombinant purified human JAK3 (Homo sapiens, UniProt P52333)
- Sequence (P52333 1-1124): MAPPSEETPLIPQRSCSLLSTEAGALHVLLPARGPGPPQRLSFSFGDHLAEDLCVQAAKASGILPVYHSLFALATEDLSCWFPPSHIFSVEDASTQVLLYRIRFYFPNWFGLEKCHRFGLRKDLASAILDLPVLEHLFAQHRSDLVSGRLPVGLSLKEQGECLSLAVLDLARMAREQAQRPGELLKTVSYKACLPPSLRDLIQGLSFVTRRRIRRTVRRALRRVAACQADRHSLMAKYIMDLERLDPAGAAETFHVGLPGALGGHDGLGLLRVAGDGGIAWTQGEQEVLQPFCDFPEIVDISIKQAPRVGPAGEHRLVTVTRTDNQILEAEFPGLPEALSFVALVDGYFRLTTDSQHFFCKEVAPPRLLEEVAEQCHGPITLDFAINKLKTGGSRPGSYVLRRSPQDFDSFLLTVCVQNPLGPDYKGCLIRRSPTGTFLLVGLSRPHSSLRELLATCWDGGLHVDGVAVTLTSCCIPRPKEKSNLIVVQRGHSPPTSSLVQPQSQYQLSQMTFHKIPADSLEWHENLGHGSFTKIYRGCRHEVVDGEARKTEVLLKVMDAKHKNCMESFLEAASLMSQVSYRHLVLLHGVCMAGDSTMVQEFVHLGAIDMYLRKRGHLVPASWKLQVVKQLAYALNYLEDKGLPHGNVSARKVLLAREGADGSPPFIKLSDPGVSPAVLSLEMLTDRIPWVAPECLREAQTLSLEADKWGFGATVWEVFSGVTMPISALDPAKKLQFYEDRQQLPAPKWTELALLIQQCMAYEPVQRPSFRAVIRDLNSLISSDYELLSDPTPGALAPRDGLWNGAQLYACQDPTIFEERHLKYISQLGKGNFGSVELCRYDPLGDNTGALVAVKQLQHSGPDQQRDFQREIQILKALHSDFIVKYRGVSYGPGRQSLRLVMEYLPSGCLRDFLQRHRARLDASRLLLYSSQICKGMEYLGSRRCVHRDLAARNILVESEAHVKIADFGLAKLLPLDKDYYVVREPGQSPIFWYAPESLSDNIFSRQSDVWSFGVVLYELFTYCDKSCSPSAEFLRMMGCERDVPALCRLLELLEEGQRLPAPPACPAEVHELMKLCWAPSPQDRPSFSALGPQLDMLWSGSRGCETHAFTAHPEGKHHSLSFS
- procedure_text: JAK3 kinase inhibitory activity, ADP-Glo kinase assay (Promega V9441)
- condition_set: ATP 5 uM, 4 ng JAK3 per reaction, 1 hour 30 °C, chemiluminescence
assay_metric: IC50 (nM)

Here's what some known entries look like.
INSERT INTO measurements (sample_smiles, assay_metric, quantitative_readout) VALUES
  ('C=CC(=O)N1CCC[C@@H](Nc2nc(Nc3cnn(CCC)c3)nc3[nH]nc(Cl)c23)C1', 'IC50', 0.8),
  ('CCn1cc(Nc2nc(N[C@H]3CN(C(=O)/C(C#N)=C/C(C)C)CC[C@H]3F)c3c(Cl)n[nH]c3n2)cn1', 'IC50', 1.5);

a: C=CC(=O)N1CCC[C@@H](Nc2nc(Nc3cnoc3)nc3[nH]nc(Cl)c23)C1
b: C=CC(=O)N1CCC[C@@H](Sc2nc(Nc3cnn(CC(F)(F)F)c3)nc3[nH]nc(Cl)c23)C1
c: C=CC(=O)N1CCC[C@@H](Sc2nc(Nc3cnn(CC(F)F)c3)nc3[nH]nc(Cl)c23)C1
Q. List the 3 entries from lowest IC50 to highest IC50 value. List the labels, following the order given in the request.
A. c, b, a
(c: 0.6 nM, b: 0.9 nM, a: 1.4 nM)
